# RP-LC retention time annotations
assay: gradient 5% acetonitrile 3 min, to 50% in 2 min, to 85% in 15 min, held 3 min, 100 µL/min; details: column: Zorbax Extend-C18 2.1 x 50 mm; eluents: water / acetonitrile, 0.1% formic acid

Mol	Value Unit	RP-LC retention time
CCc1ccccc1NC(=O)c1cccn1Cc1noc(C)n1	s	845
Cn1ccnc1C(=O)N1CC(n2cc(COc3ccc(F)cc3)nn2)C1	s	715
CCc1ccc(Oc2cc(N3CCC(C(=O)NCCc4ccccn4)CC3)ncn2)cc1	s	656
O=S(=O)(c1cccc(Cl)c1)N1CC(F)(F)C[C@H]1CN1CCc2ccccc2C1	s	788

====

assay: gradient 5% acetonitrile 3 min, to 50% in 2 min, to 85% in 15 min, held 3 min, 100 µL/min; settings: column: Zorbax Extend-C18 2.1 x 50 mm; eluents: water / acetonitrile, 0.1% formic acid
# RP-LC retention time annotations

Mol	RP-LC retention time [s]
CC1(C)CC(=O)c2cn(-c3ccccc3)c(=O)c(C(=O)N3CCc4ccccc43)c2C1	910
Cc1c(Cl)cccc1NC(=O)N1CCc2c(c(COc3ccccc3)nn2C)C1	891
CCOc1ccc(-c2nc(NC(=O)c3sc(C)nc3C)sc2C)cc1	976
CCOC(=O)Cc1ccc(NC(=O)NCc2c(C)nn(CC)c2C)cc1	649

====

assay: gradient 5% acetonitrile 3 min, to 50% in 2 min, to 85% in 15 min, held 3 min, 100 µL/min; settings: column: Zorbax Extend-C18 2.1 x 50 mm; eluents: water / acetonitrile, 0.1% formic acid
Reported Endpoint: RP-LC retention time (s)

Compound	Reported Endpoint	Measured Result
COc1cccc(NC(=O)NCC2CC(=O)N(Cc3ccc(F)cc3)C2)c1OC (stereo not drawn)	RP-LC retention time	695
CCOC(=O)C1=C(CN2CC=C(c3ccccc3)CC2)NC(=O)NC1c1cccc(OC)c1OC (stereo not drawn)	RP-LC retention time	704
Cc1nn(CC(=O)NCCCN2CC(C)CC(C)C2)c(=O)c2c1sc1ccccc12 (stereo not drawn)	RP-LC retention time	691

====

assay: gradient 5% acetonitrile 3 min, to 50% in 2 min, to 85% in 15 min, held 3 min, 100 µL/min; conditions: column: Zorbax Extend-C18 2.1 x 50 mm; eluents: water / acetonitrile, 0.1% formic acid
# RP-LC retention time annotations
Reported Endpoint: RP-LC retention time (s)

Mol	Reported Endpoint	Measured Result
O=C(NCCCN1CCCC1=O)c1cccc2c1CCN2C(=O)Nc1ccc(F)cc1	RP-LC retention time	680
Cc1ccc2oc(C(=O)N3CCC(CCN4CCCCC4)CC3)cc(=O)c2c1	RP-LC retention time	611
CNC(=O)C1CCN(C(=O)Nc2ccc(NC(=O)Nc3ccccc3)cc2)CC1	RP-LC retention time	636
CCOC(=O)c1c(C)oc2nc(C)nc(NC3CCN(Cc4ccccc4)CC3)c12	RP-LC retention time	597
COC(=O)CNC(=O)NCCn1c(C(F)(F)F)nc2ccccc21	RP-LC retention time	653

====

test: gradient 5% acetonitrile 3 min, to 50% in 2 min, to 85% in 15 min, held 3 min, 100 µL/min; conditions: column: Zorbax Extend-C18 2.1 x 50 mm; eluents: water / acetonitrile, 0.1% formic acid
RP-LC retention time vs 900 s: less than gives class 1; not less than gives class 0.

Compound	Category Label
Cc1noc(-c2ccc(NC(=O)C3c4ccccc4Oc4ccccc43)cc2)n1	class 0
Cc1noc2ncn(CC(=O)Nc3ccccc3Br)c(=O)c12	class 1
CNC(=O)Nc1ccc(-c2nc(N3CC4CCC(C3)O4)c3cnn(C4CCC5(CC4)OCCO5)c3n2)cc1	class 1
Cc1nnc(C2CCCN(C(=O)c3cc(-c4ccc5c(c4)OCO5)n[nH]3)C2)s1 (stereo unspecified)	class 1
Cc1ccccc1Cn1c(CN2CCC(C(=O)NC3CCCCCCC3)CC2)cc2ccccc21	class 0
